# measured_target: GlcNAc(b1-3)Gal(b1-4)GlcNAc(b1-3)Gal(b1-4)GlcNAc(b1-2)[GlcNAc(b1-3)Gal(b1-4)GlcNAc(b1-3)Gal(b1-4)GlcNAc(b1-6)]Man(a1-6)[GlcNAc(b1-3)Gal(b1-4)GlcNAc(b1-3)Gal(b1-4)GlcNAc(b1-2)Man(a1-3)]Man(b1-4)GlcNAc(b1-4)[Fuc(a1-6)]GlcNAc
# protocol_summary: glycan array binding signal (z-score within array); higher = stronger binding
# condition_details: glycan notation: IUPAC condensed, linker removed
This excerpt belongs to a sample that is enriched for the strongest signals.
Could you please report measured glycan array binding signal (z-score) for the items listed next?
Numbers only.

# example entries with known answers
binder	value_observed
AFL5 (Aspergillus fumigatus), Q4WB00 (protein) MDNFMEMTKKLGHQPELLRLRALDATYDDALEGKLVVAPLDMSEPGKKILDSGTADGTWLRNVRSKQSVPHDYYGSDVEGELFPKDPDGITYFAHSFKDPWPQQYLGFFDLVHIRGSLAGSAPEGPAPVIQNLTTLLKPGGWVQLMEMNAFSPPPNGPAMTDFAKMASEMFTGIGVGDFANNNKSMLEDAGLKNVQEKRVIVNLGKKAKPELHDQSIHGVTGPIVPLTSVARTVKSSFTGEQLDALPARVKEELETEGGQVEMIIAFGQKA	1.94
SJCP3842 (Schistosoma japonicum) (protein) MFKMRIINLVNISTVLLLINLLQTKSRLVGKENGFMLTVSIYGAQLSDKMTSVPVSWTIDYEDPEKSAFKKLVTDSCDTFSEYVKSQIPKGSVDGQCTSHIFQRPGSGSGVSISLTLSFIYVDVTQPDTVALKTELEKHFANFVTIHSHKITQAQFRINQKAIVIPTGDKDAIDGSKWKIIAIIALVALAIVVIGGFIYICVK	1.43
Wzz (Escherichia coli) (protein) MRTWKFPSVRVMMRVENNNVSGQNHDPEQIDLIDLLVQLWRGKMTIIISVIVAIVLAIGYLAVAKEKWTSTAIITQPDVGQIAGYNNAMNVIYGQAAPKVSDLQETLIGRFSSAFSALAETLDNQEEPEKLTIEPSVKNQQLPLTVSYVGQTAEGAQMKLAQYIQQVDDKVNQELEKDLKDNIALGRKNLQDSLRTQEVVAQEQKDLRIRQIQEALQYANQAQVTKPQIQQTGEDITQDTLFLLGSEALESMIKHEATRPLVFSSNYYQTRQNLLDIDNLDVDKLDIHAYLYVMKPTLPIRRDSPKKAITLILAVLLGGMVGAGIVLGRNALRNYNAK	-0.222

Hi team, please reply with glycan array binding signal (z-score) for each item in this list.
1. PfulAvr4 (Pseudocercospora fuligena) (protein) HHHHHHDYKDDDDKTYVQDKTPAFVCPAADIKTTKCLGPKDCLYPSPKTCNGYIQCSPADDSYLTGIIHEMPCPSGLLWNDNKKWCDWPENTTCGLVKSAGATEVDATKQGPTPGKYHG
2. Epa8 (Candida glabrata) (protein) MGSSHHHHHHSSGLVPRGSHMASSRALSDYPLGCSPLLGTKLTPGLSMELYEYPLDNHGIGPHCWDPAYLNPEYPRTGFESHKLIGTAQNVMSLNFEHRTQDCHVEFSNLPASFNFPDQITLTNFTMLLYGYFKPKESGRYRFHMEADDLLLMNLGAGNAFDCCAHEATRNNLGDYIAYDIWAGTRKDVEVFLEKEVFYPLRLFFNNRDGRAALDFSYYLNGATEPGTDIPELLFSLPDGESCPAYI

result:
1: -0.049; 2: 3.86
